Measured values drawn from paper PMC10700596 for this set.

MEASUREMENT PROTOCOL: in vivo
Assay type: in vivo, mice
CONDITION SUMMARY: male, CD-1, mouse, CSF, ip, 10 mg/kg, mice, IP 10 mg/kg, CSF, 360 min, mean; read-out: CSF concentrations of cmpd 7827_0016 in mice following IP (10 mg/kg) administration, C
ENDPOINT NAME: concentration at 360 min

## Input Please give the measured concentration at 360 min for this molecule: O=C(O)C1CCC2(CC1)CC(Nc1ncnc3[nH]c4c(F)cccc4c13)C2 (stereo not shown)
## Output 80.9 ng/mL

====

MEASUREMENT PROTOCOL: in vivo
Format: in vivo, mice
CONDITION SUMMARY: male, CD-1, mouse, brain, ip, 10 mg/kg, mice, IP 10 mg/kg, brain, 60 min, individual animals; read-out: Brain concentration, Final
ENDPOINT NAME: concentration at 60 min (ng/g)
Give just the number in ng/g; leave the unit off.

## Input Please give the measured concentration at 60 min for this molecule: O=C(O)C1CCC2(CC1)CC(Nc1ncnc3[nH]c4c(F)cccc4c13)C2 (stereo not shown)
## Output 182
